molecular target: TEAD4.Yap1 interaction (Homo sapiens); assay: Fluorescence polarization, GST-TEAD4 with FAM-Yap60-99 peptide; type: binding; set-up: TEAD4 (217-434), TEAD4 (217-434) Cys367Ser mutant and Yap1 (Full-length) were expressed as GST-fusion proteins; made in house; host or cells: E. coli BL-21 (DE3), pGEX-6P-1; details: FP assay, 24 h at 4° C.
ENDPOINT: inhibition of TEAD4.Yap1 interaction

>>> df
                                   compound                        subject_of_test           reported_result
0  O=C(O)c1ccccc1Nc1cccc(C(F)(F)F)c1 [Compound 1, reference compound]  TEAD4.Yap1 interaction (Homo sapiens)           did not inhibit
1       O=C(CCl)c1ccccc1Nc1ccc(-c2cccs2)cc1  TEAD4.Yap1 interaction (Homo sapiens)  lack of TEAD4 inhibition
2        CCC(=O)c1ccccc1Nc1cccc(C(F)(F)F)c1  TEAD4.Yap1 interaction (Homo sapiens)           did not inhibit
3       O=C(CCl)c1ccccc1Nc1cccc(-c2cccs2)c1  TEAD4.Yap1 interaction (Homo sapiens)  lack of TEAD4 inhibition

* * *

molecular target: TEAD4.Yap1 interaction (Homo sapiens); experiment: Fluorescence polarization, GST-TEAD4 with FAM-Yap60-99 peptide; format: binding; design: TEAD4 (217-434), TEAD4 (217-434) Cys367Ser mutant and Yap1 (Full-length) were expressed as GST-fusion proteins; made in house; host or cells: E. coli BL-21 (DE3), pGEX-6P-1; details: 24 h incubation at 4° C.
ENDPOINT: inhibition / maximum inhibition of TEAD4.Yap1 interaction (%)

In [3]: df
Out[3]:
                           test_smiles  reported_result
0  O=C(CCl)c1ccccc1Nc1cccc(C(F)(F)F)c1               53

A = COc1ccc(C(=O)CCl)c(Nc2cccc(C(F)(F)F)c2)c1
B = COCCOc1cccc(Nc2ccccc2C(=O)CCl)c1
C = O=C(CCl)c1ncccc1Nc1cccc(C(F)(F)F)c1
Order field: inhibition / maximum inhibition of TEAD4.Yap1 interaction | Direction: descending (largest first) Reply: labels, ordered per the request.
C, A, B

* * *

target: TEAD2 binding to Yap1 (Homo sapiens, UniProt Q15562); construct: TEAD2 (217-447) was expressed as N-terminal HIS-fusion protein; made in house; host or cells: E. coli BL-21 (DE3), pET-28a; test: Fluorescence polarization, HIS-TEAD2 with FAM-Yap60-99 peptide; conditions: 24 h at 4° C.
Sequence (Q15562 217-447): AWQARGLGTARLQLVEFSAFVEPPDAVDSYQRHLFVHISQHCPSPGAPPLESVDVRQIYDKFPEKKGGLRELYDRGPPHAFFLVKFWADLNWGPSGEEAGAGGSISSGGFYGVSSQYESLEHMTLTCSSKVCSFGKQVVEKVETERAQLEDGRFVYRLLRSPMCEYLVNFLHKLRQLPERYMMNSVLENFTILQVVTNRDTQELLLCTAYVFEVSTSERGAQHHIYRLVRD
ENDPOINT: inhibition of TEAD2 binding to Yap1

                                   compound  reported_result
0  O=C(O)c1ccccc1Nc1cccc(C(F)(F)F)c1 [Compound 1, reference compound]         inactive
1  CCC(=O)c1ccccc1Nc1cccc(C(F)(F)F)c1 [Compound 3]         inactive

* * *

tested on: patient-derived GBM43 glioblastoma spheroids; experiment: GBM43 spheroid viability (Alamar blue); type: cell-based, human; conditions: Homo sapiens; three-dimensional spheroids; read-out: EC50, inhibition of GBM43 spheroid growth
ENDPOINT: EC50 (µM)
Expressed in µM, but write only the number.

What does the data say about its EC50? Entry: Cn1nnc2c(C(N)=O)ncn2c1=O [Temozolomide, temozolomide, reference compound]
244

* * *

Target: TEAD4.Yap1 interaction (Homo sapiens, UniProt Q15561)
Sequence (Q15561 217-434): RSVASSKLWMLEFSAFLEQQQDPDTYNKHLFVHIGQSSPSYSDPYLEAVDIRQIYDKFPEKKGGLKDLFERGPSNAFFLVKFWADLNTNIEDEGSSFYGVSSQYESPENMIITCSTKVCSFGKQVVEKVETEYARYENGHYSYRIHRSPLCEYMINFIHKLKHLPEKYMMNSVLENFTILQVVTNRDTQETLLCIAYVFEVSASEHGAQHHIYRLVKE
Assay: Fluorescence polarization, GST-TEAD4 with FAM-Yap60-99 peptide
Type: binding
Parameters: TEAD4 (217-434), TEAD4 (217-434) Cys367Ser mutant and Yap1 (Full-length) were expressed as GST-fusion proteins; made in house; host or cells: E. coli BL-21 (DE3), pGEX-6P-1
Settings: 24 h incubation with TEAD4 at 4° C.; read-out: apparent EC50, inhibition of TEAD4.Yap1 protein-protein interaction
Experimental: GST-TEAD4, GST-TEAD4 Cys367Ser mutant or HIS-TEAD2 interaction with Yap1 was investigated using a fluorescently-labeled peptide (FAM-Yap60-99), consisting of FAM-labeled TEAD-binding peptide fragment of Yap1 (FAM-[…] TVPMCLRKLPASFCKPP), which has a disulfide bridge (American Peptide, Sunnyvale, Calif.). […] Percent inhibition was calculated as relative to a minimum inhibition control, which is without compound, and a maximum inhibition control, which is without a TEAD. […]
ENDPOINT: EC50 (nM)
Record the value in nM, omitting the unit from your answer.

Enter reported EC50 observed with TEAD4.Yap1 interaction (Homo sapiens, UniProt Q15561) for `COc1ccc(C(=O)CCl)c(Nc2cccc(C(F)(F)F)c2)c1`
2300
